assayed.target: PfAPH106-235 (Plasmodium falciparum, UniProt Q8I1U2, K138A)
Construct: gene PF3D7_0414600
Sequence (Q8I1U2 106-235 K138A): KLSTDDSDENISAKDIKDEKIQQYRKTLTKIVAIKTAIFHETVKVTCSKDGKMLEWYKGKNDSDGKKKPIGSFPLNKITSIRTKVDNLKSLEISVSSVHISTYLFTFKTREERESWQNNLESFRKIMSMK
procedure.details: biochemical
value.type: pKd
Scale explanation: pKd corresponds to minus log10 of a concentration expressed in moles per litre.

Req: Look up pKd: CCCCCCCC/C=C\CCCCCCCC(=O)O[C@H](COC(=O)CCCCCCCCCCCCCCC)COP(=O)(O)O
Resp: 3.02

====

assayed.target: PfAPH106-235 (Plasmodium falciparum, UniProt Q8I1U2)
Construct: gene PF3D7_0414600; C-terminal PH domain, residues 106-235; codon-optimised gene, pNIC28a-Bsa4, E. coli BL21(DE3); N-terminal His6 tag cut by TEV
Sequence (Q8I1U2 entry or part of it): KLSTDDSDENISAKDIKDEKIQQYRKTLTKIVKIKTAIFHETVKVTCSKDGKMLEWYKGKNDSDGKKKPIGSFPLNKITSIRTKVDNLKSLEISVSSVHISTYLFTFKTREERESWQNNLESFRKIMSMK
procedure.details: 1H-15N HSQC NMR titration
Type: binding
Excerpt: 1H-15N HSQC NMR titration on PfAPH106-235 | binding to the short-chain PA is in the fast exchange regime on the NMR timescale
value.type: Kd

Req: Would you kindly share the measured Kd for CCCCCC(=O)OC[C@H](COP(=O)(O)O)OC(=O)CCCCC [short-chain PA, 1,2-dihexanoyl-sn-glycero-3-phosphate] ?
Resp: > 50 µM

====

assayed.target: PfAPH106-235 (Plasmodium falciparum, UniProt Q8I1U2, F144A/I143A)
Sequence (Q8I1U2 106-235 F144A/I143A): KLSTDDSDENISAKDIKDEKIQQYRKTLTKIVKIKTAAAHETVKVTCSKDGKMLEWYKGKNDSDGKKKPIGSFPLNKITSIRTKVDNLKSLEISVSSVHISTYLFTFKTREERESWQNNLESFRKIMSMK
procedure.details: biochemical
value.type: Kd
Answer format: value, then unit.

Req: Dear colleague, I am looking for the recorded Kd of the following compound: CCCCCCCC/C=C\CCCCCCCC(=O)O[C@H](COC(=O)CCCCCCCCCCCCCCC)COP(=O)(O)O
Resp: 1320 µM
